- Test Protocol: Pharmacokinetics of compounds 1–11 in rat plasma (UPLC-TQ/MS) after oral administration of HYD and plus-minus Haizao/Gancao decoctions
- Assay type: in vivo, Wistar rats (PTU-induced model of hypothyroidism)
- Run Parameters: Wistar, 1 mL/kg, group GC (extract of Gancao), 1 mL/kg intragastrically, model rats, n = 6, mean ± S.D.
- Procedure: Plasma samples (200 μL) and IS solution (50 μL, 1215 ng/mL for diphenhydramine, 476 ng/mL for chloromycetin) were added to an Eppendorf tube, and this mixture was extracted with methanol (550 μL) by shaking on a vortex-mixer for 2 min, and centrifuged for 10 min at 13,000 rpm. The contents were evaporated to dryness in a rotary evaporator at 37 °C. The residue was reconstituted in methanol (100 μL) and centrifuged (13,000 rpm for 10 min). […]
Quantity Measured: AUC(0-t) (ng·h/mL)
Give the quantity in ng·h/mL, number only.

Compound	AUC(0-t), ng·h/mL
CC1(C)[C@@H](O)CC[C@]2(C)[C@H]3C(=O)C=C4[C@@H]5C[C@@](C)(C(=O)O)CC[C@]5(C)CC[C@@]4(C)[C@]3(C)CC[C@@H]12 [Compound 11, glycyrrhetinic acid]	10500

-- ask Given O=C1C[C@@H](c2ccc(O)cc2)Oc2cc(O)ccc21 [Compound 6, liquiritigenin] , respond with its AUC(0-t).
-- reply 1000

-- ask Consider the compound O=C1C[C@@H](c2ccc(O[C@@H]3O[C@H](CO)[C@@H](O)[C@H](O)[C@H]3O)cc2)Oc2cc(O)ccc21 [Compound 1, liquiritin] . State its measured AUC(0-t).
-- reply 229

-- ask Consider the compound CC1(C)[C@@H](O[C@H]2O[C@H](C(=O)O)[C@@H](O)[C@H](O)[C@H]2O[C@@H]2O[C@H](C(=O)O)[C@@H](O)[C@H](O)[C@H]2O)CC[C@]2(C)[C@H]3C(=O)C=C4[C@@H]5C[C@@](C)(C(=O)O)CC[C@]5(C)CC[C@@]4(C)[C@]3(C)CC[C@@H]12 [Compound 7, glycyrrhizic acid] . State its measured AUC(0-t).
-- reply 1760
